Attribution: paper PMC6753139

Target Desc: T1, TRIM24_(824-1006) (human, UniProt O15164 824-1006)
T1 construct: TRIM24, human, PHD-Bromodomain, residues 824-1006, amplified from a human bone marrow cDNA library, in pET-SUMO-28a (+); also called TRIM24-PHD-Bromo; TRIM24 PHD-Bromodomain; source: E. coli BL21 (DE3), purified (Ni-chelating column, SUMO protease, second nickel column, Superdex 75)
T1 sequence (looked up): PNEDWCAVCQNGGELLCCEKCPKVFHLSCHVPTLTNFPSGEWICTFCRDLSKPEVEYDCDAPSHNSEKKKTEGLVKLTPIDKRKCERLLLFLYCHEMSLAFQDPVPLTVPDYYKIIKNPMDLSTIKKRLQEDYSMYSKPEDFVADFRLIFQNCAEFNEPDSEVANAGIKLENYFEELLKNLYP
Experimental Protocol: ITC; 0.7–4 mM peptide injected into a cell with 0.05 or 0.11–0.15 mM TRIM66-PHD-Bromo (or its mutants), 0.12 mM TRIM24-PHD-Bromo or 0.05 mM TRIM33 PHD-Bromo; 25 °C; 20 mM Tris, 100 mM NaCl, pH 7.5; MicroCal PEAQ-ITC; single measurement
Protocol Conditions: both partners purified
Where no end group is shown, it is not given here. [ ]: non-standard residue; d: D form. Arg(Me2a) = CN(C)C(=N)NCCC[C@H](N)C(=O)O; Arg(Me) = CNC(=N)NCCC[C@H](N)C(=O)O
Assign Kd to each entry below.
Answer in µM, number only, no unit symbol.

Entry A[Arg(Me2a)]TKQTARKSTG (peptide, UniProt P68431 2-13, looked up, histone H3, residues 1-12; also called H3R2me2a; asymmetrically dimethylated H3R2; source: synthetic peptide (GL Biochem, Shanghai)) [H3_(1-12)R2me2a peptide] — recorded Kd = 76.8

Entry ARTKQTARKSTG (peptide, UniProt P68431 2-13, looked up, histone H3, residues 1-12, unmodified; also called unH3_(1-12); unmodified H3_(1-12); source: synthetic peptide (GL Biochem, Shanghai)) [H3_(1-12) peptide, unmodified] — recorded Kd = 51.4

Entry A[Arg(Me)]TKQTARKSTG (peptide, UniProt P68431 2-13, looked up, histone H3, residues 1-12; also called H3R2me1; monomethylated H3R2; source: synthetic peptide (GL Biochem, Shanghai)) [H3_(1-12)R2me1 peptide] — recorded Kd = 72.7
